Tested on: human iPSC-derived 3D BrainSpheres
Experiment: BrainSphere MEA assay (HD-MEA, 13-day exposure, concentration-response)
Assay type: cell-based
Settings: mean across active AC50 values per chemical; read-out: Mean potency
endpoint name: EC50 (µM)
Write the answer as a number in µM, unit excluded.

[CH3][Hg][Cl] : 6.15
CC1(C)[C@H](C(=O)O[C@H](C#N)c2cccc(Oc3ccccc3)c2)[C@@H]1C=C(Br)Br : 5.23

Here is the next item to consider.
Quote EC50 with test system human iPSC-derived 3D BrainSpheres for `Brc1ccc(Oc2ccc(Br)cc2Br)c(Br)c1`
11.4

###

Reported AC50 values for a set of molecules
System: human iPSC-derived 3D BrainSpheres
Experiment: BrainSphere MEA assay (HD-MEA, 13-day exposure, concentration-response)
Type: cell-based
Conditions: concentration at 50% maximal activity; Supplement 3 prints it also for curves with hit call 0; read-out: ac50 Mean.Spheroid.IBI
Number in µM, nothing else.

Would you please look over these solved cases?
CC1(C)[C@H](C(=O)O[C@H](C#N)c2cccc(Oc3ccccc3)c2)[C@@H]1C=C(Br)Br : 10.4
Brc1ccc(Oc2ccc(Br)cc2Br)c(Br)c1 : 45
ClC1=C(Cl)[C@]2(Cl)[C@@H]3[C@@H]4C[C@@H]([C@H]5O[C@@H]45)[C@@H]3[C@@]1(Cl)C2(Cl)Cl : 28.2

Below: the item to evaluate.
Provide only the value of recorded AC50 for `[CH3][Hg][Cl]`
6.32

###

Test system: human iPSC-derived 3D BrainSpheres
Assay: BrainSphere MEA assay (HD-MEA, 13-day exposure, concentration-response)
Format: cell-based
Conditions: tcplfit2 output ACC; activity cutoff in Supplemental Table 1
// label = true (1) if ACC Spheroid.Spike.Amplitude.90th.Percentile is not less than 20 µM, otherwise false (0)

C/C(=C/C=C/[C@@H](C)C(=O)O)[C@H]1CN[C@H](C(=O)O)[C@H]1CC(=O)O : false (0)
CC1(C)[C@H](C(=O)O[C@H](C#N)c2cccc(Oc3ccccc3)c2)[C@@H]1C=C(Br)Br : false (0)
[CH3][Hg][Cl] : false (0)
Brc1ccc(Oc2ccc(Br)cc2Br)c(Br)c1 : false (0)

Then there is this compound:
Hello, I need to know if `CC(C)(c1ccc(O)cc1)c1ccc(O)cc1` has measured ACC Spheroid.Spike.Amplitude.90th.Percentile not below 20 µM. Thanks!
true (1)

###

System: human iPSC-derived 3D BrainSpheres
Assay: BrainSphere MEA assay (HD-MEA, 13-day exposure, concentration-response)
Format: cell-based
Details: Homo sapiens, concentration at 50% maximal activity; Supplement 3 prints it also for curves with hit call 0; read-out: ac50 Spheroid.Burst.Frequency
Form field: AC50 (one value per entry).
Please respond with the number in µM and leave the unit unwritten.

Example results:
CC1(C)[C@H](C(=O)O[C@H](C#N)c2cccc(Oc3ccccc3)c2)[C@@H]1C=C(Br)Br : 5.9
CCCC(CCC)C(=O)O [Sodium valproate] : 84

Please find the next compound below.
Quick one: give measured AC50 for `CC(C)(c1ccc(O)cc1)c1ccc(O)cc1`
45
